System: Staphylococcus aureus
Assay method text: Control: microbicidal activity of the amino acid or analogue alone (no glucose, MPO, glucose oxidase) in the presence of blood
Type: cell-based
Settings: amino acid analogue alone 5 mM; MPO 0; GO 0; no glucose; blood
# Average Viability CFU/ml 60 min values compiled below
In your response, the unit should come after the numeric value.

Example compounds with recorded Average Viability CFU/ml 60 min:
1) CC(C)CC(N)CC(=O)O (racemic) [DL-Beta-homoleucine]	20500000 CFU/ml
2) Cl.NCC(N)C(=O)O (racemic)	20600000 CFU/ml
3) COC(=O)CN.Cl [Glycine methyl ester hydrochloride]	21100000 CFU/ml
4) CCOC(=O)CCN.Cl [Beta-Alanine ethyl ester hydrochloride]	23100000 CFU/ml

Query compound follows.
Lab note: COC(=O)[C@@H]1CCCN1.Cl [L-Proline methyl ester hydrochloride] gave Average Viability CFU/ml 60 min of 23200000 CFU/ml

====

System: Staphylococcus aureus
Assay method text: Microbicidal activity of the myeloperoxidase system (p-MPO, glucose oxidase, glucose) with amino acids in the presence of blood, CFU plate counts; synergy determination from these CFU
Type: cell-based
Settings: MPO 100 μg/mL; AA 5 mM; 60 min
Value type: Log 10 (CFU + 1) Survivors
Reply with the value as a number alone.

Example compounds with recorded Log 10 (CFU + 1) Survivors:
1. N[C@H](Cc1c[nH]cn1)C(=O)O [D-Histidine]	4.1
2. NCCCC[C@H](N)C(=O)O [L-Lysine]	0.5
3. CC[C@H](C)[C@H](N)C(=O)O [L-Isoleucine]	0.0
4. O=C(O)[C@@H]1C[C@@H](O)CN1 [L-Hydroxyproline]	0.9

Lab note: N[C@H](Cc1ccc(O)cc1)C(=O)O [D-Tyrosine] gave Log 10 (CFU + 1) Survivors of 5.0

Lab note: C[C@@H](O)[C@H](N)C(=O)O [L-Threonine] gave Log 10 (CFU + 1) Survivors of 5.5

====

Tested on: Staphylococcus aureus
Assay method text: Microbicidal activity of the myeloperoxidase system (p-MPO, glucose oxidase, glucose) with amino acids in the presence of blood, CFU plate counts; synergy determination from these CFU
Assay type: cell-based
Settings: MPO 100 μg/mL; AA 20 mM; 60 min
Value type: Log 10 (CFU + 1) Survivors
Reply with the value as a number alone.

Example compounds with recorded Log 10 (CFU + 1) Survivors:
1. N[C@@H](CO)C(=O)O	0.0
2. NC(=O)CC[C@@H](N)C(=O)O	4.0
3. CC(C)C[C@@H](N)C(=O)O	1.9
4. O=C(O)[C@@H]1C[C@@H](O)CN1 [L-Hydroxyproline]	7.3
5. COC(=O)[C@@H](C)N	0.0

Query compound follows.
Lab note: NCCC(=O)O gave Log 10 (CFU + 1) Survivors of 0.0

====

Test system: Staphylococcus aureus
Assay method text: Microbicidal activity of the myeloperoxidase system (p-MPO, glucose oxidase, glucose) with amino acids in the presence of blood, CFU plate counts; synergy determination from these CFU
Format: cell-based
Settings: Table 5; amino acid 5 mM (none: 0 mM); MPO 38 U/ml; GO 33.3 U/ml; blood
# Average Viability CFU/ml 60 min values compiled below
In your response, the unit should come after the numeric value.

Example compounds with recorded Average Viability CFU/ml 60 min:
1. CC[C@@H](C)[C@@H](N)C(=O)O	0 CFU/ml
2. NC(=O)CC[C@@H](N)C(=O)O	18 CFU/ml
3. N[C@H](Cc1ccccc1)C(=O)O	0 CFU/ml
4. N[C@H](Cc1ccc(O)cc1)C(=O)O	9400 CFU/ml
5. N=C(N)NCCC[C@@H](N)C(=O)O	0 CFU/ml
6. CC(C)[C@@H](N)C(=O)O	0 CFU/ml

Lab note: N[C@H](CO)C(=O)O gave Average Viability CFU/ml 60 min of 0 CFU/ml

Lab note: N[C@H](CC(=O)O)C(=O)O gave Average Viability CFU/ml 60 min of 570000 CFU/ml

Lab note: N[C@H](Cc1c[nH]cn1)C(=O)O gave Average Viability CFU/ml 60 min of 10900 CFU/ml

Lab note: CSCC[C@@H](N)C(=O)O gave Average Viability CFU/ml 60 min of 9400000 CFU/ml

====

# log reduction at 5000 µM values compiled below
System: Staphylococcus aureus
Assay method text: Control: microbicidal activity of the amino acid or analogue alone (no glucose, MPO, glucose oxidase) in the presence of blood
Assay type: cell-based
Settings: Staphylococcus aureus, 1 h; amino acid alone 5 mM; MPO 0; GO 0; no glucose; blood; without replication; read-out: Log Reduction 60 min
Reply with the value as a number alone.

Example compounds with recorded log reduction at 5000 µM:
1. CC[C@H](C)[C@H](N)C(=O)O [L-Isoleucine]	0
2. O=C(O)c1cccnc1 [Nicotinic acid]	0
3. N[C@H](Cc1ccccc1)C(=O)O [D-Phenylalanine]	0
4. C[C@H](N)C(=O)O [L-Alanine]	0
5. C[C@@H](N)C(=O)O [D-Alanine]	0

Lab note: CSCC[C@H](N)C(=O)O [L-Methionine] gave log reduction at 5000 µM of 0.1

Lab note: CC[C@@H](C)[C@@H](N)C(=O)O [D-Isoleucine] gave log reduction at 5000 µM of 0.1

Lab note: N[C@@H](CO)C(=O)O [L-Serine] gave log reduction at 5000 µM of 0

Lab note: CC(=O)C(=O)O [Pyruvic acid] gave log reduction at 5000 µM of 0

Lab note: NC(=O)CC[C@@H](N)C(=O)O [D-Glutamine] gave log reduction at 5000 µM of 0.1

Lab note: N[C@@H](Cc1c[nH]cn1)C(=O)O [L-Histidine] gave log reduction at 5000 µM of 0

Lab note: O=C(O)[C@@H]1CCCN1 [L-Proline] gave log reduction at 5000 µM of 0

Lab note: N[C@@H](CC(=O)O)C(=O)O [L-Aspartic acid] gave log reduction at 5000 µM of 0.1

Lab note: CC(C)[C@@H](N)C(=O)O [D-Valine] gave log reduction at 5000 µM of 0.1

Lab note: N[C@H](CO)C(=O)O [D-Serine] gave log reduction at 5000 µM of 0

====

Test system: Staphylococcus aureus
Assay method text: Microbicidal activity of the myeloperoxidase system (p-MPO, glucose oxidase, glucose) with amino acids in the presence of blood, CFU plate counts; synergy determination from these CFU
Assay type: cell-based
Settings: MPO 100 μg/mL; AA 20 mM; 60 min
Value type: Log 10 (CFU + 1) Survivors

Lab note: CC[C@H](C)[C@H](N)C(=O)O gave Log 10 (CFU + 1) Survivors of 0.0

====

# Log Reduction 60 min values compiled below
Tested on: Staphylococcus aureus
Assay method text: Microbicidal activity of the myeloperoxidase system (p-MPO, glucose oxidase, glucose) with amino acids in the presence of blood, CFU plate counts; synergy determination from these CFU
Assay type: cell-based
Settings: Table 3; amino acid 5 mM (none: 0 mM); MPO 38 U/ml; GO 33.3 U/ml; blood
Reply with the value as a number alone.

Example molecules with recorded Log Reduction 60 min:
1) N[C@@H](CC(=O)O)C(=O)O [L-Aspartic acid]	1.5
2) C[C@H](O)[C@@H](N)C(=O)O [D-Threonine]	1.4
3) CC(C)C[C@H](N)C(=O)O [L-Leucine]	7.3
4) C[C@@H](N)C(=O)O [D-Alanine]	7.3
5) NC(=O)C[C@H](N)C(=O)O [L-Asparagine]	0.6

Lab note: N[C@@H](Cc1ccc(O)cc1)C(=O)O [L-Tyrosine] gave Log Reduction 60 min of 1.5

====

System: Staphylococcus aureus
Assay method text: Microbicidal activity of the myeloperoxidase system (p-MPO, glucose oxidase, glucose) with amino acids in the presence of blood, CFU plate counts; synergy determination from these CFU
Format: cell-based
Settings: MPO 25 μg/mL; AA 5 mM; 60 min
Response field label takes fulfilled when Log 10 (CFU + 1) Survivors is strictly below 6 and not fulfilled in all other cases.

1. NCCCC[C@H](N)C(=O)O	fulfilled
2. NCC(=O)O	not fulfilled
3. N[C@H](CO)C(=O)O	not fulfilled
4. NCCS(=O)(=O)O	not fulfilled
5. C[C@@H](N)C(=O)O	fulfilled

Would you kindly verify if Log 10 (CFU + 1) Survivors of CC(C)C[C@@H](N)C(=O)O is strictly less than 6?
fulfilled

Would you kindly verify if Log 10 (CFU + 1) Survivors of N[C@@H](CO)C(=O)O is strictly less than 6?
fulfilled

Would you kindly verify if Log 10 (CFU + 1) Survivors of O=C(O)[C@@H]1C[C@@H](O)CN1 [L-Hydroxyproline] is strictly less than 6?
not fulfilled

Would you kindly verify if Log 10 (CFU + 1) Survivors of C[C@H](O)[C@@H](N)C(=O)O is strictly less than 6?
not fulfilled

Would you kindly verify if Log 10 (CFU + 1) Survivors of COC(=O)[C@@H](C)N is strictly less than 6?
fulfilled

From: patent US8945540B2
